IC50 values by entry
Target: T1, Myc-LGR4 (mouse LGR4, predicted mature form aa23-951, N-terminal Myc tag), expressed on HEK293 cells (mouse, UniProt A2ARI4 23-951)
T1 construct: range 23-951
T1 sequence: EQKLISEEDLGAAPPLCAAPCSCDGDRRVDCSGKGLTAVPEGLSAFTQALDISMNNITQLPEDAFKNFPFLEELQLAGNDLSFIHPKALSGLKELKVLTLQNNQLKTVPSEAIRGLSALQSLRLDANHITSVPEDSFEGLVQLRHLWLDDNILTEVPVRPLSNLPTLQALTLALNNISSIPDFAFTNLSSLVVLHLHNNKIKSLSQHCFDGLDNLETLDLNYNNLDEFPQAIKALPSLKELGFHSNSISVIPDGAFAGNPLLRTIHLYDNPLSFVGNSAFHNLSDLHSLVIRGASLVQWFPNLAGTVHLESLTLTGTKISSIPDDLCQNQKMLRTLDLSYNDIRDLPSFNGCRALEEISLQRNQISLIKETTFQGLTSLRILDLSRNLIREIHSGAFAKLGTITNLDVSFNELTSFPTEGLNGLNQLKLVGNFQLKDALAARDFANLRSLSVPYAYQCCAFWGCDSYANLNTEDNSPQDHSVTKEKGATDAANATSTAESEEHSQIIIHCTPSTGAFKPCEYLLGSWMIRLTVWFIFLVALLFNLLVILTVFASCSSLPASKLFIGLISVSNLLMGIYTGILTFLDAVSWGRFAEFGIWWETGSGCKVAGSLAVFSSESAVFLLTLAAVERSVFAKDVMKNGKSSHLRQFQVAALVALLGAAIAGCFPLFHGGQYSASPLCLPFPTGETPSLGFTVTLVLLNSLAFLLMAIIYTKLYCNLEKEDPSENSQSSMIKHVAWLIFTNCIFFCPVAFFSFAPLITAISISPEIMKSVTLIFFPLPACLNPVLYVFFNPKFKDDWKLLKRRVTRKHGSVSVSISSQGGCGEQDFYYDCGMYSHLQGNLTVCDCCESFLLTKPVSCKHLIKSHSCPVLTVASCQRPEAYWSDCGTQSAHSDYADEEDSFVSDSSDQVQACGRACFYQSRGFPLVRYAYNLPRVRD
Experiment: whole-cell fluorescence competition binding, displacement of mRSPO1-Fc (~5 nM) from HEK293 cells expressing Myc-LGR4

| Binder | Units Of Measure | IC50 |
| --- | --- | --- |
| recombinant human RSPO1 (ligand, UniProt Q2MKA7 21-263, looked up, Bought from R&D Systems; also called R-spondin 1) SRGIKGKRQRRISAEGSQACAKGCELCSEVNGCLKCSPKLFILLERNDIRQVGVCLPSCPPGYFDARNPDMNKCIKCKIEHCEACFSHNFCTKCKEGLYLHKGRCYPACPEGSSAANGTMECSSPAQCEMSEWSPWGPCSKKQQLCGFRRGSEERTRRVLHAPVGDHAACSDTKETRRCTVRRVPCPEGQKRRKGGQGRRENANRNLARKESKEAGAGSRRRKGQQQQQQQGTVGPLTSAGPA | nM | 25 |
| recombinant human RSPO4 (ligand, Bought from R&D Systems; also called R-spondin 4) LNRRKKQVGTGLGGNCTGCIICSEENGCSTCQQRLFLFIRREGIRQYGKCLHDCPPGYFGIRGQEVNRCKKCGATCESCFSQDFCIRCKRQFYLYKGKCLPTCPPGTLAHQNTRECQGECELGPWGGWSPCTHNGKTCGSAWGLESRVREAGRAGHEEAATCQVLSESRKCPIQRPCPGERSPGQKKGRKDRRPRKDRKLDRRLDVRPRQPGLQP | nM | 228 |
| recombinant human RSPO2 (ligand, UniProt Q6UXX9 22-243, looked up, Bought from R&D Systems; also called R-spondin 2) QGNRWRRSKRASYVSNPICKGCLSCSKDNGCSRCQQKLFFFLRREGMRQYGECLHSCPSGYYGHRAPDMNRCARCRIENCDSCFSKDFCTKCKVGFYLHRGRCFDECPDGFAPLEETMECVEGCEVGHWSEWGTCSRNNRTCGFKWGLETRTRQIVKKPVKDTILCPTIAESRRCKMTMRHCPGGKRTPKAKEKRNKKKKRKLIERAQEQHSVFLATDRANQ | nM | 2.3 |
| recombinant human RSPO3 (ligand, Bought from R&D Systems; also called R-spondin 3) QNASRGRRQRRMHPNVSQGCQGGCATCSDYNGCLSCKPRLFFALERIGMKQIGVCLSSCPSGYYGTRYPDINKCTKCKADCDTCFNKNFCTKCKSGFYLHLGKCLDNCPEGLEANNHTMECVSIVHCEVSEWNPWSPCTKKGKTCGFKRGTETRVREIIQHPSAKGNLCPPTNETRKCTVQRKKCQKGERGKKGRERKRKKPNKGESKEAIPDSKSLESSKEIPEQRENKQQQKKRKVQDKQKSVSVSTVH | nM | 126 |

Ref: patent US20130143227A1
